Known IC50 of a selection of molecules
Target: SapM (Mycobacterium tuberculosis, UniProt O53361)
Construct: made in house; host or cells: Escherichia coli C41 (DE3)
Sequence (O53361 44-299): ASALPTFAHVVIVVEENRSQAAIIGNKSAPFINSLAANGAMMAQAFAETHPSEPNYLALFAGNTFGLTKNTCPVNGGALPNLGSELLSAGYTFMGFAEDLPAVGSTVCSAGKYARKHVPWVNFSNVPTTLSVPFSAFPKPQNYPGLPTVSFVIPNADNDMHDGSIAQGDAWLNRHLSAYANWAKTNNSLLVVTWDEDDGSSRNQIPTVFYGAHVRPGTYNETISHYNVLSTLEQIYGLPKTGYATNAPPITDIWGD
Test: biochemical
Type: biochemical

// IC50 value for O=[N+]([O-])c1ccc(Oc2ccc(Br)cc2)c(C(O)P(=O)(O)O)c1 (centres unmarked) [Compound 6, RWJ-60475] : 41.9 µM

Alright, here's another molecule for you.
// IC50 value for CCCCCCCCCCCC(=O)c1c(O)c(C(=O)CCCCCCCCCCC)c(O)c(C2CC(c3ccc(O)cc3)Oc3cc(O)ccc32)c1O (centres unmarked) [Compound 3, YM-26734] : 19.8 µM

====

target: SapM (Mycobacterium tuberculosis, UniProt O53361); construct: made in house; host or cells: Escherichia coli C41 (DE3); experiment: biochemical; assay type: biochemical; settings: 0.5 h; compounds at 100 µM; relative to pNPP DMSO control; read-out: %SA (percentage specific activity of SapM)
With a cut-off of 70%, any remaining activity at 100 µM strictly below it is called 1; any remaining activity at 100 µM meeting it or above is called 0.

QUERY: Is 70% strictly greater than the compound's reported remaining activity at 100 µM? compound: O=c1c(-c2ccc(O)cc2)coc2cc(O)cc(O)c12
RESULT: 0

Turning now to a further compound:
QUERY: Is 70% strictly greater than the compound's reported remaining activity at 100 µM? compound: N[C@H](C(=O)O)[C@H](O)c1ccc(O)c(O)c1
RESULT: 0

====

Known pIC50 of a selection of compounds
Molecular target: SapM (Mycobacterium tuberculosis, UniProt O53361)
Construct: made in house; host or cells: Escherichia coli C41 (DE3)
Sequence (O53361 44-299): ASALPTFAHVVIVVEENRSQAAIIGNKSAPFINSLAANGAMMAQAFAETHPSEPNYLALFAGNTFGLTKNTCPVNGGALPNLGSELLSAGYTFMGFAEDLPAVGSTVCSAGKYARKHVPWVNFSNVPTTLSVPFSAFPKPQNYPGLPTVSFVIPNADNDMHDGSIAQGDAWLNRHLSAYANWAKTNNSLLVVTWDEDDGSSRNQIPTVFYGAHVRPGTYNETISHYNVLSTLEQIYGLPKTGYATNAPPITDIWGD
Experiment: biochemical
Assay type: biochemical
Conditions: pNPP assay, dose-response
Notebook: values listed as pIC50 are -log10 of the concentration (mol/L).

// pIC50 value for O=C(O)c1cc(O)c(O)c(O)c1 : 4.20

// pIC50 value for N#CC(C#N)=C(N)/C(C#N)=C/c1cc(O)c(O)c(O)c1 [Compound 13, Tyrphostin AG 183] : 5.09

====

assay: MTT cytotoxicity assay, MH-S; conditions: mouse, MH-S cells (SV40-transformed alveolar macrophage cell line)
endpointLabel: viability at 24 h

// viability at 24 h value for N#CC(C#N)=C(N)/C(C#N)=C/c1cc(O)c(O)c(O)c1 : > 70%

====

biological target: PTP1B (Homo sapiens); experiment: hPTP1B inhibition, pNPP assay; assay type: biochemical
Sequence (P18031 whole entry): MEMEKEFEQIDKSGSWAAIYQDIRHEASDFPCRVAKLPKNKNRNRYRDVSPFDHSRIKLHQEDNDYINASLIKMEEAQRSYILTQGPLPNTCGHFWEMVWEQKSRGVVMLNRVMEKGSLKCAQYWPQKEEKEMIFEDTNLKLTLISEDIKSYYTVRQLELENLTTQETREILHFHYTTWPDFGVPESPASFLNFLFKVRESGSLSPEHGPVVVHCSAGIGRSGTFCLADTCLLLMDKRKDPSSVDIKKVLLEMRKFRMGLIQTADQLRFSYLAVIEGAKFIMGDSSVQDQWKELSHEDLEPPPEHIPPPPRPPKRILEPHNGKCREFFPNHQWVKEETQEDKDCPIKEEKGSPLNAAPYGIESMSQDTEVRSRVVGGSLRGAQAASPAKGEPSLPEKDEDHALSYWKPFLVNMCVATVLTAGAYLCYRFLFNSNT
endpointLabel: IC50

// IC50 value for O=c1oc2c(cc1O)oc(=O)c1cc(O)c(O)c(O)c12 : > 100 µM

====

biological target: SapM (Mycobacterium tuberculosis); construct: made in house; host or cells: Escherichia coli C41 (DE3); test: biochemical; assay type: biochemical; settings: 0.5 h; compounds at 100 µM; relative to pNPP DMSO control; read-out: %SA (percentage specific activity of SapM)
With a cut-off of 70%, any remaining activity at 100 µM strictly below it is called met; any remaining activity at 100 µM meeting it or above is called not met.

QUERY: Is 70% strictly greater than the molecule's reported remaining activity at 100 µM? molecule: N#CC(C#N)=Cc1cc(O)c(O)c(O)c1
RESULT: met

QUERY: Is 70% strictly greater than the molecule's reported remaining activity at 100 µM? molecule: CC(C)=CC[C@@H](O)C1=CC(=O)c2c(O)ccc(O)c2C1=O
RESULT: not met

QUERY: Is 70% strictly greater than the molecule's reported remaining activity at 100 µM? molecule: N#CC(C#N)=Cc1ccc(O)c(O)c1
RESULT: not met

QUERY: Is 70% strictly greater than the molecule's reported remaining activity at 100 µM? molecule: O=c1cc(-c2ccc(O)cc2)oc2cc(O)cc(O)c12
RESULT: not met

QUERY: Is 70% strictly greater than the molecule's reported remaining activity at 100 µM? molecule: Oc1cc(O)c2c(c1)O[C@H](c1ccc(O)c(O)c1)[C@H](O)C2 [Compound 32, (−)-Epicatechin]
RESULT: not met

Turning now to a further molecule:
QUERY: Is 70% strictly greater than the molecule's reported remaining activity at 100 µM? molecule: O=c1oc2c(cc1O)oc(=O)c1cc(O)c(O)c(O)c12
RESULT: met

====

target: SapM (Mycobacterium tuberculosis, UniProt O53361); construct: made in house; host or cells: Escherichia coli C41 (DE3); test: biochemical; type: biochemical; conditions: pNPP assay, dose-response
endpointLabel: IC50
Write the figure, then the unit, nothing else.

// IC50 value for O=c1oc2c(cc1O)oc(=O)c1cc(O)c(O)c(O)c12 : 9.3 µM

// IC50 value for N#CC(C#N)=Cc1cc(O)c(O)c(O)c1 : 14.5 µM

// IC50 value for C[C@H](O)[C@H](O)[C@H]1CNc2[nH]c(N)nc(=O)c2N1.Cl.Cl [Compound 5, (6R)-BH4, reference compound] : 73.9 µM

Alright, here's another molecule for you.
// IC50 value for N#CC(C#N)=C(N)/C(C#N)=C/c1cc(O)c(O)c(O)c1 [Compound 1, Tyrphostin 51] : 6.3 µM
